attribute.measured: logP
Numbers only.

I need logP for every entry listed below, if you could help.
1. NC(=O)c1cncc(Cl)n1
2. CN(C)c1cncc(Cl)n1
3. CCCOc1cncc(Cl)n1
4. CC(=O)Nc1cncc(Cl)n1

stdout:
1: 0.28; 2: 1.95; 3: 2.71; 4: 1.1

----------
Consider the following molecules; for each one, report its logP.
Numbers only.

Sample answers from the record:
[
  {
    "smiles.representation": "Nc1cncc(Cl)n1",
    "logP": 0.95
  },
  {
    "smiles.representation": "Cc1cncc(Cl)n1",
    "logP": 1.04
  },
  {
    "smiles.representation": "Fc1cncc(Cl)n1",
    "logP": 1.16
  },
  {
    "smiles.representation": "N#Cc1cncc(Cl)n1",
    "logP": 0.79
  },
  {
    "smiles.representation": "COc1cncc(Cl)n1",
    "logP": 1.65
  },
  {
    "smiles.representation": "COC(=O)c1cncc(Cl)n1",
    "logP": 0.47
  },
  {
    "smiles.representation": "Clc1cncc(Cl)n1",
    "logP": 1.53
  }
]

stdin: State the recorded logP for this entry: `CCOc1cncc(Cl)n1`
stdout: 2.22
